This listing pairs molecules with measured LC retention time.
Assay: HILIC, Waters Atlantis Premier BEH Z-HILIC, 100 × 2.1 mm, 1.7 µm, 40 °C, 0.15 mL/min, estimated dead time 1.5 min; A: water + 20 mM ammonium carbonate + 5 µM medronic acid; B: 10% water + 90% acetonitrile + 2 mM ammonium carbonate + 0.5 µM medronic acid; gradient (min/%B) 0/100 18/55 18.1/20 21.5/20 22/100 23.5/100 25.5/100
Conditions: stereoisomer not certain

# molecule, quantity-unit, LC retention time
measured = [
    ("O=C(O)CC(O)(CC(=O)O)C(=O)O", "min", 14.7),
    ("O=P(O)(O)OCC(O)CO (stereo not drawn) [Glycerol-3-phosphate]", "min", 9.84),
    ("NC(=O)C1=CN(C2OC(COP(=O)(O)OP(=O)(O)OCC3OC(n4cnc5c(N)ncnc54)C(O)C3O)C(O)C2O)C=CC1 (stereo not drawn)", "min", 7.99),
    ("Cc1cc2nc3c(=O)[nH]c(=O)nc-3n(CC(O)C(O)C(O)COP(=O)(O)OP(=O)(O)OCC3OC(n4cnc5c(N)ncnc54)C(O)C3O)c2cc1C (stereo not drawn)", "min", 7.27),
    ("OCC1OC(O)C(O)C(O)C1O (stereo not drawn) [Hexose]", "min", 6.94),
    ("CC(=O)NC1C(OP(=O)(O)OP(=O)(O)OCC2OC(n3ccc(=O)[nH]c3=O)C(O)C2O)OC(CO)C(O)C1O (stereo not drawn)", "min", 9.63),
    ("O=C(CO)COP(=O)(O)O [Triose phosphate]", "min", 9.84),
    ("O=C1CC(C(=O)O)NC(=O)N1 (stereo not drawn) [dihydroorotic acid]", "min", 4.02),
]
